Molecular target: T1, Claudin 18.2 VLP (UniProt P56856 1-261)
T1 construct: Antigen coated on ELISA plates, 200 ng/well; source and construct not described; also called Claudin18.2-VLP protein; Claudin18.2 VLP antigen
Assay: ELISA, coated antigen 200 ng/well; antibody 0.123 ug/mL
Items are presented alongside their recorded absorbance at 450 nm.
Number only, no unit.

{"binder": "1-hIgG1Fc (Fc fusion, VHH-hIgG1Fc recombinant antibody; also called 1-hlgG1Fc; VHH-hIgG1Fc recombinant antibody of clone 1; not shown: human IgG1 Fc (hIgG1Fc)) EVQLVGSGGGLVQPGGSLRLSCAASGSILNLMTTGWYRQAPGKQRDLVATITFGGTTNYADSVKGRFTISRDKSKNTAYLQMDNLKPEDTAVYFCYADVIVGFQDRRVAWDAGTQVTVSS", "absorbance at 450 nm": 0.293}
{"binder": "5-hIgG1Fc (Fc fusion, VHH-hIgG1Fc recombinant antibody; also called 5-hlgG1Fc; VHH-hIgG1Fc recombinant antibody of clone 5; not shown: human IgG1 Fc (hIgG1Fc)) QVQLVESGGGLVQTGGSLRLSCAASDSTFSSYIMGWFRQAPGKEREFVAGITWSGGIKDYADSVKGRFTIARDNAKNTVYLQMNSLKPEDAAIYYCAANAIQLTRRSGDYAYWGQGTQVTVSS", "absorbance at 450 nm": 0.39}
{"binder": "8-hIgG1Fc (Fc fusion, VHH-hIgG1Fc recombinant antibody; also called 8-hlgG1 Fc; VHH-hIgG1Fc recombinant antibody of clone 8; not shown: human IgG1 Fc (hIgG1Fc)) QVQLVESGGGLVQPGGSLRLSCAASGSIFGLNFMGWWRQAPGSQRELVAIATSGGSIQYGDSVKGRFTISRDNAKNTVYLQMASLKPEDTAVYYCNVHTYDFLGRDYWGQGTQVTVSL", "absorbance at 450 nm": 0.474}

Continue with the next binder.
[in] # absorbance at 450 nm lookup, item 10-hIgG1Fc (Fc fusion, VHH-hIgG1Fc recombinant antibody; also called 10-hlgG1Fc; VHH-hIgG1Fc recombinant antibody of clone 10; not shown: human IgG1 Fc (hIgG1Fc)) QVQLAESGGGLVQPGGSLRLSCAASGNILSINYMGWYRQAPGKERELVATITRGGTTNYQGDLKGRFIISGDNTKDTVYLQMNNLQPEDTAVYYCYFRINFGILGGLRDYWGQGTQVTVSS
[out] 0.568

Provenance of the data: patent EP4682169A1
